# procedureText: Oral bioavailability in male Sprague-Dawley rat at 10 mg/kg measured after 48 hrs by triple quadrupole mass spectrometric analysis
# Format: ADME, organism-based
# measurementSetup: in vivo
metricName: bioavailability
Write the quantity with the unit trailing the number.

Any idea what its bioavailability is? The compound is COc1nc(-c2cccc(-c3ccccc3)c2C)ccc1CNCCCCCCC(=O)NO
15.3%

====

# experimentalSystem: UniProtKB Q9UBN7
# Sequence (Q9UBN7 whole entry): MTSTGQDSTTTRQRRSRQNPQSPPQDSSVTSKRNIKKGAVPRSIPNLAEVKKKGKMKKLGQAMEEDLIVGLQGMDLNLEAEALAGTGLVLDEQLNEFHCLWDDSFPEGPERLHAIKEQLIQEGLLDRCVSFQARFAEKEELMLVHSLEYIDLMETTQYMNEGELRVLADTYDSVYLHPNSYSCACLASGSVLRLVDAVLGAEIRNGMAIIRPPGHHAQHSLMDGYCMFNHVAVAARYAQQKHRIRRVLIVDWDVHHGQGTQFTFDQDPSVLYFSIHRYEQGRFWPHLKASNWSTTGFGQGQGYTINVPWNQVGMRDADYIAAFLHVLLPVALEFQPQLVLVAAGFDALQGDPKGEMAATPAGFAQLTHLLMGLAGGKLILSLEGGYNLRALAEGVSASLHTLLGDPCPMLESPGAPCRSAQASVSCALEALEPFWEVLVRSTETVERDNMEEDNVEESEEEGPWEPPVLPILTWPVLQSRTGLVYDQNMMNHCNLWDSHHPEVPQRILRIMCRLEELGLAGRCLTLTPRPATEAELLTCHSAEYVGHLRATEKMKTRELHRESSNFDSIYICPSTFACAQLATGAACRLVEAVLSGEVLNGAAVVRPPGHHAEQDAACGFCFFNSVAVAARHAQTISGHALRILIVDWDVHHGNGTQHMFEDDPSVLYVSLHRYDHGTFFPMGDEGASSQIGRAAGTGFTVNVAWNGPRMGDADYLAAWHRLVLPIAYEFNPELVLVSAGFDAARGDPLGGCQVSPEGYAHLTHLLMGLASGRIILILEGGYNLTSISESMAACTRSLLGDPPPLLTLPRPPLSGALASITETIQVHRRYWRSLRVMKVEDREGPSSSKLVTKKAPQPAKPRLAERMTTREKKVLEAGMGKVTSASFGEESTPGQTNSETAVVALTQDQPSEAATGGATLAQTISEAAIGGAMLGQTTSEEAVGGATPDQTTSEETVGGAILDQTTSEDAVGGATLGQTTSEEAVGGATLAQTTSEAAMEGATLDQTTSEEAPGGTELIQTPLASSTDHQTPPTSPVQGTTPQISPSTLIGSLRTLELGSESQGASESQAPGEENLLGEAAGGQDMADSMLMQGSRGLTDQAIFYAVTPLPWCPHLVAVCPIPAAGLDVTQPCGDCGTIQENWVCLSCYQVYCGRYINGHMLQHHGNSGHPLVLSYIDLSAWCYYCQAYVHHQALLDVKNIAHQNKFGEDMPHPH
# measurementSetup: Sf9, dose 100.0 nM, time 30.0 min
metricName: inhibition

INSERT INTO measurements (molecule, result) VALUES
  ('COc1nc(OCc2cccc(-c3ccccc3)c2C)ccc1CNCC(=O)NO', '< 10%');

Here is another molecule to look at.
Fill in the recorded inhibition for this molecule, with UniProtKB Q9UBN7 as test system: COc1nc(OCc2cccc(-c3ccccc3)c2C)ccc1CNC(C)(C)CC(=O)Nc1ccccc1N
< 10%
